- Tested On: T1, human vascular endothelial growth factor receptor-2 Fc chimera (KDR-Fc) (human, UniProt P35968 20-764)
- T1 construct: range 1-764; also called human VEGFR-2; VEGF-R2-Fc; not shown: human IgG1 Fc
- T1 sequence (P35968 20-764 limits assumed, change not shown, form in doubt): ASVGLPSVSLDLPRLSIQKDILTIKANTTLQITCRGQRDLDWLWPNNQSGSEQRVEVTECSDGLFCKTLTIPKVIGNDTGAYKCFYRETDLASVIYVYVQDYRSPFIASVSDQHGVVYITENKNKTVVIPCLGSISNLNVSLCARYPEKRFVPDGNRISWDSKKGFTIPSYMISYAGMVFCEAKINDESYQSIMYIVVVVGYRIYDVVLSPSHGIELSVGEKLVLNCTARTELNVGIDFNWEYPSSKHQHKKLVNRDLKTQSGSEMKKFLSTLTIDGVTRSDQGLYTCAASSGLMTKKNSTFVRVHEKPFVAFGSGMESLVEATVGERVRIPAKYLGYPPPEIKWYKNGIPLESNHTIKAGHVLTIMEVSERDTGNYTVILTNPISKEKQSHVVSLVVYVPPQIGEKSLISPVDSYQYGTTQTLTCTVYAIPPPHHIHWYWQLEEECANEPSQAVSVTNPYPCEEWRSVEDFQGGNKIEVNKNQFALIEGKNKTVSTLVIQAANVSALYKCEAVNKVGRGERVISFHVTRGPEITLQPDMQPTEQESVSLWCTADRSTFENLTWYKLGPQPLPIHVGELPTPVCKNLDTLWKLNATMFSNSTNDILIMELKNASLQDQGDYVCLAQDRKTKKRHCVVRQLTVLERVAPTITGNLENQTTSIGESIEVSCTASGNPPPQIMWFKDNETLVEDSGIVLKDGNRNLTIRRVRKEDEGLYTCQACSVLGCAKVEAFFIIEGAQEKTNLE
- Experiment: radioactive equilibrium binding, 1 nM KDR-Fc
Experimental Endpoint: Binding to 1 nM KDR, % (%)

3′E11 PR4 (designed binder, Del 1-8) EVVAATPTSLLISWRHPHFPTRYYRITYGETGGNSPVQEFTVPLQPPTATISGLKPGVDYTITGYAVTVGPHDRELLTPISINYRT; 17
K13 (designed binder, Del 1-8; 246 used) EVVAATPTSLLISWRHPHFPTRYYRITYGETGGNSPVQEFTVPLQPPTATISGLKPGVDYTITGYAVTLALKGHELLTPISINYRT; 17
3C9 PR3 (designed binder, Del 1-8) EVVAATPTSLLISWRHPHFPTRYYRITYGETGGNSPVQEFTVPLQPPTATISGLKPGVDYTITGYAVTLVRNDHELLTPISINYRT; 16
2′Del H5 PR4 (designed binder, Del 1-8) EVVAATPTSLLISWRHPHFPTRYYRITYGETGGNSPVQEFTVPLQPPTATISGLKPGVDYTITGYAVTLGKDVRELLTPISINYRT; 34
2′DelC7 PR4 (designed binder, Del 1-8) EVVAATPTSLLISWRHPHFPTRYYRITYGETGGNSPVQEFTVPLQPPTATISGLKPGVDYTITGYAVTWDQNGHVLLTPISINYRT; 19
3′D3 PR4 (designed binder, Del 1-8) EVVAATPTSLLISWRHPHFPTRYYRITYGETGGNSPVQEFTVPLQPPTATISGLKPGVDYTITGYAVTPGPGDRELITPISINYRT; 42
3D12 PR3 (designed binder, Del 1-8) EVVAATPTSLLISWRHPHFPTRYYRITYGETGGNSPVQEFTVPLQPPTATISGLKPGVDYTITGYAVTLGQNDRQLLVPISINYRT; 24

A. 3B4 PR3 (designed binder, Del 1-8) EVVAATPTSLLISWRHPHFPTRYYRITYGETGGNSPVQEFTVPLQPPTATISGLKPGVDYTITGYAVTVGQNEHELLTPISINYRT
B. K15 (designed binder, Del 1-8) EVVAATPTSLLISWRHPHFPTRYYRITYGETGGNSPVQEFTVPLQPPTATISGLKPGVDYTITGYAVTEVHHDREIKTPISINYRT
Consider A and B . Which of these has its Binding to 1 nM KDR, % at a higher number? Output the label that corresponds to your choice.
B
